# System: Human immunodeficiency virus 1
# MEASUREMENT DESCRIPTION: Antiviral activity against HIV1 subtype B' CNE6 pseudovirus assessed as inhibition of viral infection in Ghost (3)X4/R5 cells after 48 hrs by Bright-Glo luciferase reporter gene assay
# Assay type: functional, organism-based
# CONDITIONS USED: Human immunodeficiency virus 1, subtype B' CNE6, 48 h
QUANTITY: IC50

Measured IC50 of `Ac-MTWEEWDKKIEEYTKKIEELIKKS-NH2` : 10.3 nM

---

# System: chymotrypsin
# MEASUREMENT DESCRIPTION: Drug metabolism assessed as chymotrypsin (unknown origin)-mediated compound degradation by measuring compound half life at 25 uM by HPLC analysis
# Assay type: ADME, Homo sapiens
QUANTITY: half-life at 25 µM
# number then unit; no other words

Measured half-life at 25 µM of `Ac-MTWEEWDKKIEEYTKKIEELIKKS-NH2` : 2.08 h
